Provenance of the data: patent US20250177383A1

# ASSAY TEXT: Microsomal stability, rat liver microsomes
# Type: in vitro ADME
# MEASUREMENT SETUP: SD rat liver microsomes 0.5 mg protein/mL, 1 μM test compound, NADPH, 37° C., 60 min; read-out: RLM Clint
ASSAY METRIC: microsomal CLint at 1 μM

compound CCn1nccc1C(=O)N[C@H](C(=O)Nc1ccc([C@H](C)[C@@H](NC(=O)COC)C(=O)N2CCN(C)[C@@H](CF)C2)cc1F)[C@H]1CC[C@H](C)CC1 [B, reference compound] , microsomal CLint at 1 μM observed: 9.6 to 20 µL/min/mg

compound CCC(=O)N[C@@H](C(=O)N1CCN(C)[C@H](C)C1)[C@@H](C)c1ccc(NC(=O)[C@@H](NC(=O)c2ccnn2CCF)C(C2CC2)C2CC2)c(F)c1 [Compound 217] , microsomal CLint at 1 μM observed: < 9.6 µL/min/mg

compound CCC(=O)N[C@@H](C(=O)N1CCN(C)[C@@H](C)C1)[C@@H](C)c1ccc(NC(=O)[C@@H](NC(=O)c2ccnn2CC)[C@H]2CC[C@H](C)CC2)c(F)c1 [I, reference compound] , microsomal CLint at 1 μM observed: 9.6 to 20 µL/min/mg

compound CCn1nccc1C(=O)N[C@H](C(=O)Nc1ccc([C@H](C)[C@@H](NC(=O)COC)C(=O)N2CCN(C)CC2)cc1F)C(C1CC1)C1CC1 [Compound 215] , microsomal CLint at 1 μM observed: < 9.6 µL/min/mg

compound CCn1nccc1C(=O)N[C@H](C(=O)Nc1ccc([C@H](C)[C@@H](NC(=O)COC)C(=O)N2CCN(C)[C@H](C)C2)cc1F)[C@H]1CC[C@H](C)CC1 [D, reference compound] , microsomal CLint at 1 μM observed: 9.6 to 20 µL/min/mg

compound CCC(=O)N[C@@H](C(=O)N1CCN(C)CC1)[C@@H](C)c1ccc(NC(=O)[C@@H](NC(=O)c2ccnn2C(C)C)[C@H]2CC[C@H](C)CC2)c(F)c1 [L, reference compound] , microsomal CLint at 1 μM observed: 9.6 to 20 µL/min/mg

compound CCn1nccc1C(=O)N[C@H](C(=O)Nc1ccc([C@H](C)[C@@H](NC(=O)COC)C(=O)N2CCN(C)CC2)cc1F)[C@H]1CC[C@H](C)CC1 [K, reference compound] , microsomal CLint at 1 μM observed: < 9.6 µL/min/mg

compound CCC(=O)N[C@@H](C(=O)N1CCN(C)[C@H](C)C1)[C@@H](C)c1ccc(NC(=O)[C@@H](NC(=O)c2ccnn2CC)C(C2CC2)C2CC2)c(F)c1 [Compound 209] , microsomal CLint at 1 μM observed: < 9.6 µL/min/mg

compound CCn1nccc1C(=O)N[C@H](C(=O)Nc1ccc([C@H](C)[C@@H](NC(=O)N(C)C2CC2)C(=O)N2CCN(C)CC2)cc1F)[C@H]1CC[C@H](C)CC1 [J, reference compound] , microsomal CLint at 1 μM observed: > 20 µL/min/mg

compound CCc1nonc1C(=O)N[C@H](C(=O)Nc1ccc([C@H](C)[C@@H](NC(C)=O)C(=O)N2CCN(C)[C@H](C)C2)cc1F)C(C1CC1)C1CC1 [Compound 214] , microsomal CLint at 1 μM observed: 9.6 to 20 µL/min/mg

###

Task for the reader: assign each of the following compounds its reported IC50.
# TARGET UNDER TEST: IL-17A/A (Homo sapiens)
# ASSAY TEXT: IL-17A/A HEK-Blue Cell Assay
# Format: cell-based
# MEASUREMENT SETUP: HEK-Blue IL-17 reporter cells, IL-17A/A stimulation, 20 hours, SEAP readout; read-out: IL17 AA HEK-5 pIC50 (converted)

compound CO[C@@H](C)C(=O)N[C@@H](C(=O)N1C[C@H]2C[C@@H]1CN2C)[C@@H](C)c1ccc(NC(=O)[C@@H](NC(=O)c2ccnn2C(C)C)C(C2CC2)C2CC2)c(F)c1 , IC50 observed: 10 to 100 nM

compound CCOCCN(C)C(=O)N[C@@H](C(=O)N1CCN(C)[C@H](C)C1)[C@@H](C)c1ccc(NC(=O)[C@@H](NC(=O)c2ccnn2CC)C(C2CC2)C2CC2)c(F)c1 , IC50 observed: 10 to 100 nM

compound CCn1nccc1C(=O)N[C@H](C(=O)Nc1ccc([C@H](C)[C@@H](NC(=O)COC)C(=O)N2C[C@@H](C)N(C)C[C@H]2C)cc1F)C(C1CC1)C1CC1 , IC50 observed: < 10 nM

compound CCc1nonc1C(=O)N[C@H](C(=O)Nc1ccc([C@H](C)[C@@H](NC(=O)[C@H](C)OC)C(=O)N2CCN(C)CC2)cc1F)C(C1CC1)C1CC1 , IC50 observed: < 10 nM

compound CCn1nccc1C(=O)N[C@H](C(=O)Nc1ccc([C@H](C)[C@@H](NC(=O)COC)C(=O)N2C[C@@H](C)N(C)[C@@H](C)C2)cc1F)C(C1CC1)C1CC1 , IC50 observed: < 10 nM

###

# TARGET UNDER TEST: IL-17A/F (Homo sapiens, UniProt Q16552+Q96PD4)
# ASSAY TEXT: IL-17A/F HEK-Blue Cell Assay
# Format: cell-based
# MEASUREMENT SETUP: HEK-Blue IL-17 reporter cells, IL-17A/F stimulation, 20 hours, SEAP readout; read-out: IL17AF HEK Blue pIC50 (converted)
Task for the reader: assign each of the following molecules its reported IC50.

molecule CCC(=O)N[C@@H](C(=O)N1CCN(C)[C@H](C)C1)[C@@H](C)c1ccc(NC(=O)[C@@H](NC(=O)c2ccnn2CC)C(C2CC2)C2CC2)c(F)c1 , IC50 observed: 10 to 100 nM

molecule CCn1nccc1C(=O)N[C@H](C(=O)Nc1ccc([C@H](C)[C@@H](NC(=O)[C@H](C)OC)C(=O)N2CCN(C)C[C@@H]2C)cc1F)C(C1CC1)C1CC1 , IC50 observed: 10 to 100 nM

molecule CCC(=O)N[C@@H](C(=O)N1C[C@@H](C)N(C)C[C@H]1C)[C@@H](C)c1ccc(NC(=O)[C@@H](NC(=O)C2(F)CC2)C(C2CC2)C2CC2)c(F)c1 , IC50 observed: 100 to 10000 nM

###

# TARGET UNDER TEST: IL-17A/F (Homo sapiens, UniProt Q16552+Q96PD4)
# Sequence (Q16552 24-155): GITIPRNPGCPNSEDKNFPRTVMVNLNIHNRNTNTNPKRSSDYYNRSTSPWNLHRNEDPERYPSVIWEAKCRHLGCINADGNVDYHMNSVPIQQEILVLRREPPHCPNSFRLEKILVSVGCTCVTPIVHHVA
# Sequence (Q96PD4 31-163): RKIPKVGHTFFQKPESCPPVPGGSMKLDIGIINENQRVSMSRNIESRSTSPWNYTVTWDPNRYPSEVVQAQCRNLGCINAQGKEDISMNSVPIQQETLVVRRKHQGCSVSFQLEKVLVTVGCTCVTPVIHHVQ
# ASSAY TEXT: IL-17A/F HEK-Blue Cell Assay
# Format: cell-based
# MEASUREMENT SETUP: HEK-Blue IL-17 reporter cells, IL-17A/F stimulation, 20 hours, SEAP readout; read-out: IL17AF HEK Blue pIC50 (converted)
ASSAY METRIC: IC50

compound CCc1nonc1C(=O)N[C@H](C(=O)Nc1ccc([C@H](C)[C@@H](NC(=O)CF)C(=O)N2CCNC(CF)C2)cc1F)C(C1CC1)C1CC1 (single isomer, unassigned) [Compound 302] , IC50 observed: 100 to 10000 nM

compound CCC(=O)N[C@@H](C(=O)N1CCN(C)[C@H](C)C1)[C@@H](C)c1ccc(NC(=O)[C@@H](NC(=O)c2ccnn2C)C(C2CC2)C2CC2)c(F)c1 [Compound 297] , IC50 observed: 10 to 100 nM

compound CCn1nccc1C(=O)N[C@H](C(=O)Nc1ccc([C@H](C)[C@@H](NC(=O)[C@H](C)OC)C(=O)N2CCN(C)[C@H](C)C2)cc1F)C(C1CC1)C1CC1 [Compound 221] , IC50 observed: 10 to 100 nM

compound CCC(OC)C(=O)N[C@@H](C(=O)N1CCN(C)CC1)[C@@H](C)c1ccc(NC(=O)[C@@H](NC(=O)c2ccnn2CC)C(C2CC2)C2CC2)c(F)c1 (single isomer, unassigned) [Compound 340] , IC50 observed: 10 to 100 nM

compound CCn1nccc1C(=O)N[C@H](C(=O)Nc1ccc(C(C(NC(=O)[C@H](C)OC)C(=O)N2CCN(C)[C@H](C)C2)C(F)(F)F)cc1F)C(C1CC1)C1CC1 (single isomer, unassigned) [Compound 351] , IC50 observed: 100 to 10000 nM

###

Task for the reader: assign each of the following compounds its reported IC50.
# TARGET UNDER TEST: IL-17A/F (Homo sapiens, UniProt Q16552+Q96PD4)
# Sequence (Q16552 24-155): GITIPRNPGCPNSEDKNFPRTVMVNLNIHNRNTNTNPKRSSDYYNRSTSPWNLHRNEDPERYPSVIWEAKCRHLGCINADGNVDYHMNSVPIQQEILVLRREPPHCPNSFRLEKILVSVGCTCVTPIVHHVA
# Sequence (Q96PD4 31-163): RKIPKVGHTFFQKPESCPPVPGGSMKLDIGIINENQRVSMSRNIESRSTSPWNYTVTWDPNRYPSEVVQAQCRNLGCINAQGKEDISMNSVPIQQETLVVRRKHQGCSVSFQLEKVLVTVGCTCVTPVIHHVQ
# ASSAY TEXT: IL-17A/F HEK-Blue Cell Assay
# Assay type: cell-based
# MEASUREMENT SETUP: HEK-Blue IL-17 reporter cells, IL-17A/F stimulation, 20 hours, SEAP readout; read-out: IL17AF HEK Blue pIC50 (converted)

compound CCn1nccc1C(=O)N[C@H](C(=O)Nc1ccc([C@H](C)[C@@H](NC(=O)C(C)C(F)(F)F)C(=O)N2CCN(C)[C@H](C)C2)cc1F)C(C1CC1)C1CC1 (single isomer, unassigned) , IC50 observed: 0.1 to 10 µM

compound CCC(OC)C(=O)N[C@@H](C(=O)N1CCN(C)CC1)[C@@H](C)c1ccc(NC(=O)[C@@H](NC(=O)c2ccnn2CC)C(C2CC2)C2CC2)c(F)c1 (single isomer, unassigned) [Compound 339] , IC50 observed: 0.1 to 10 µM

compound CCn1nccc1C(=O)N[C@H](C(=O)Nc1ccc([C@H](C)[C@@H](NC(=O)C(C)CC(F)(F)F)C(=O)N2CCN(C)CC2)cc1F)C(C1CC1)C1CC1 (single isomer, unassigned) [Compound 331] , IC50 observed: 0.1 to 10 µM
